tested on: OVCAR-5; experiment: NCI tumour cell line growth inhibition, 48 h
Activity calls are given as the source filed them. No stated cut-off is given here; in the data, active = GI50 up to about 1.1 µM and inactive = higher.
Parameter: GI50. Scope: all listed entries.
Measure name: GI50

Compound	Value measured
COc1cc2c(cc1OC)C1c3ccccc3CCCN1CC2 (stereo not given)	> 100 µM (inactive)
CC1=NN(C(=O)CC(=O)Nc2ccccc2Cl)C(=O)C1/N=N/c1ccc(C(=O)O)cc1 (stereo not given)	> 100 µM (inactive)
CCNC(=O)OCc1c(COC(=O)NCC)c(-c2ccc(Cl)c(Cl)c2)n2c1CCC2	20.3 µM (inactive)
C=C=C(CC(CC(=C)Br)(C(=O)OC)C(=O)OC)S(=O)(=O)c1ccccc1	1.65 µM (inactive)
O=C(O)c1nnsc1-c1ccc(-c2snnc2C(=O)O)cc1	> 100 µM (inactive)

====

tested on: Malme-3M; experiment: NCI tumour cell line growth inhibition, 48 h
Activity calls are given as the source filed them. Cut-off read from the data, not from the text of the source: active = GI50 up to about 1.1 µM and inactive = higher.
Outcomes: t (active), f (inactive)

Compound	Assigned label
O=c1ccn(-c2ccccn2)c(=O)n1-c1ccccn1	f
O=c1[nH]nc(Cc2ccccc2)n1/N=C/c1ccco1	f
COC1CC2CCC(C)[C@](O)(O2)C(=O)C(=O)N2CCCCC2C(=O)OC(C(C)CC2CCC(O)C(OC)C2)CC(=O)C(C)C=C(C)C(OC(=O)CN(C)C)C(OC)C(=O)C(C)CC(C)/C=C/C=C/C=C\1C (some centres undefined)	t
Cc1nn(-c2cc(Cl)ccc2[N+](=O)[O-])c(C)c1Cl	f
CC(C)C(Sc1nc(-c2ccccc2)c(-c2ccccc2)[nH]1)c1n[nH]c(=S)n1-c1ccccc1 (centres undefined)	f
Cc1cc(/N=C/c2c(CO)cnc(C)c2O)c(/N=C/c2c(CO)cnc(C)c2O)cc1C	f
Clc1cc(OC23CC4CC(CC(C4)C2)C3)nc(Cl)n1	f
Cc1ncc(COP(=O)(O)O)c(/C=C2\SC(=S)NC2=O)c1O	f
CC#CC1C(OC(=O)c2ccccc2)CCCC1(CI)N=[N+]=[N-] (centres undefined)	f

====

test system: U-251; assay: NCI tumour cell line growth inhibition, 48 h
Activity calls are given as the source filed them. Cut-off read from the data, not from the text of the source: active = GI50 up to about 1.1 µM and inactive = higher.
Parameter: GI50. Scope: all listed entries.

Molecule	GI50
Cc1cc2c(cc1Cl)Sc1n[nH]c(=O)n1S2(=O)=O	> 100 µM (inactive)
COC(=O)C1=C(O)C(C(=O)OC)[C@]2(O)[C@H](C(=O)OC)[C@H]1C[C@@H](c1ccc(C(F)(F)F)cc1)[C@H]2C(=O)OC (stereo partly drawn)	2.41 µM (inactive)
CC1(C)OC(=O)C(=Cc2ccc([N+](=O)[O-])s2)C(=O)O1	15.4 µM (inactive)
Cc1ccc2[nH]c3c(C)c4c(c(C)c3c2c1)CN(C)C=C4	0.271 µM (active)
Nc1cc2c3c(cccc3c1)C(=O)N(c1ccc(OCCN3CCCCC3)cc1)C2=O	22 µM (inactive)
C=C1C(=O)O[C@H]2C[C@@H](C)[C@@H]3CC(=O)OC[C@@]3(C)CC12 (stereo partly drawn)	97.3 µM (inactive)
C/C(=C/CC[C@]1(CO)CC[C@]2(C)[C@H](CC[C@@H]3[C@@]4(C)CC[C@H](OC5OC(CO)C(O)C(O)C5OC5OC(CO)C(O)C(O)C5O)C(C)(C)[C@@H]4CC[C@]32C)[C@H]1O)CO (stereo partly drawn)	> 100 µM (inactive)
CN(C)C(=Nc1nc(N(C)C)s[s+]1)N(C)C	> 100 µM (inactive)
